Reported Cyno CP % Max Inhibition, hemolysis assay, 5% serum values for the following binders.
# SYSTEM UNDER TEST: Cynomolgus monkey C5 (cynomolgus monkey, UniProt A0A2K5U1T1 19-1676)
# METHOD DESCRIPTION: cell-based or functional assay

Answered cases to consult:
[
  {
    "BINDER": "H4H12164P (antibody, human IgG4, V domains shown, H4H: human IgG4 Fc with S108P hinge mutation) VH: EVQLVESGGGLVRSGGSLRLSCAASGFTFNRYAMTWVRQAPGKGLEWVSAISGSGSSTYYTDSVKGRFTISRDNSKNSVDLQMHSLRVEDTAIYYCARGTTVTTGYGMDVWGQGTTVTVSS VL: DIQMTQSPSSLSASVGDRVTFTCQASQDITNSLNWYQQKPGRAPKLLIYDASYLKAGVPSRFSGSGSGTDFTFTISSLQPEDIATYYCQQYDDLPYTFGQGTKLEIK",
    "VALUE OBSERVED": "94.7%"
  },
  {
    "BINDER": "H4H12159P (antibody, human IgG4, V domains shown, H4H: human IgG4 Fc with S108P hinge mutation) VH: QVQLVESGGGVVQPGRSLRLSCGASGFTFSTYGMHWVRQAPGKGLEWVAVIWDDGNNKYYADSVKGRFTISRDNSKNTLYLQMNSLRAEDTAVYYCARDSEVAPVGDYWGQGTLVTVSS VL: DIQMTQSPSTLSASVGDRVTIICRASQSINRWLAWYQQKPGKAPKLLIYKASSLESGVPSRFSGSGSGTEFTLTISSLQPDDFAAYYCQQYNDYSYTFGQGTKLEIK",
    "VALUE OBSERVED": "99.3%"
  }
]

Alright, here's another binder for you.
For H4H12169P (antibody, human IgG4, V domains shown, H4H: human IgG4 Fc with S108P hinge mutation) VH: EVQLVESGGGLAQPGGSLRLSCAASGFTFRSYAMSWVRQAPGKGPEWVSGIGGNGVTTYYADSVKGRFTISRDNSKNTLFLQMNSLRAEDTAVYYCVQGGLGGYFTGYWGQGTLVTVSS VL: DIQMTQSPSSLSASVGDRVTITCRASQSISTYLNWYQQNPGKAPKLLIFDASSLQSGVPSRFSGSGSGTDFTLTIRGLQPEDFATYYCQQSYSAPLTFGGGTKVEIK the binder record lists Cyno CP % Max Inhibition, hemolysis assay, 5% serum as 92.8%

// provenance: patent US20170355757A1
